These data points were gathered from patent EP4813985A1.

- testDetails: Pharmacokinetic test in rats
- Assay type: in vivo, SD rats
- conditionSummary: rat, po, plasma, i.g. (10 mg/kg)
assayReadout: half-life (h)
Use h as the unit, but write only the number.

C=C1CN(S(=O)(=O)Nc2ccc(F)c(Oc3ccc4ncn(CC(F)F)c(=O)c4c3)c2C#N)C1 [Compound 3]    13.9

We now examine a further compound.
Input CC=C1CN(S(=O)(=O)Nc2ccc(F)c(Oc3ccc4ncn(CC(F)F)c(=O)c4c3)c2C#N)C1 [Compound 7] , output reported half-life. 13.5

---

- testDetails: Pharmacokinetic test in mice
- Assay type: in vivo, ICR mice
- conditionSummary: mouse, po, plasma, i.g. (10 mg/kg)
The following molecules are listed with their measured half-life values.
Use min as the unit, but write only the number.

C=C1CN(S(=O)(=O)Nc2ccc(F)c(Oc3ccc4ncn(CC(F)F)c(=O)c4c3)c2C#N)C1    618

Input `CC(F)=C1CN(S(=O)(=O)Nc2ccc(F)c(Oc3ccc4ncn(CC(F)F)c(=O)c4c3)c2C#N)C1` , output reported half-life. 590

Input `N#Cc1c(NS(=O)(=O)N2CC(=CF)C2)ccc(F)c1Oc1ccc2ncn(CC(F)F)c(=O)c2c1` , output reported half-life. 529

Input `CC=C1CN(S(=O)(=O)Nc2ccc(F)c(Oc3ccc4ncn(CC(F)F)c(=O)c4c3)c2C#N)C1` , output reported half-life. 642

Input `CC=C1CN(S(=O)(=O)Nc2ccc(F)c(Oc3ccc4ncn(CCF)c(=O)c4c3)c2C#N)C1` , output reported half-life. 540

---

- testDetails: Pharmacokinetic test in mice
- Assay type: in vivo, ICR mice
- conditionSummary: mouse, iv, plasma, i.v. (2.5 mg/kg)
- Description: 3.1 Experimental animals: Male ICR mice, 20-25 g, 6 mice/compound, purchased from Chengdu Dossy Experimental Animals Co., Ltd. 3.2 Experimental design: On the day of the experiment, the ICR mice were randomly grouped according to their body weights. The animals were fasted with water available for 12-14 h one day before the administration, and were fed 4 h after the administration. Table 3.1 Administration information […]
The following compounds are listed with their measured clearance values.

In the examples that follow, each entry is paired with its recorded clearance.
CC=C1CN(S(=O)(=O)Nc2ccc(F)c(Oc3ccc4ncn(CCF)c(=O)c4c3)c2C#N)C1 [Compound 14]    0.00924 L/h/kg
CC(F)=C1CN(S(=O)(=O)Nc2ccc(F)c(Oc3ccc4ncn(CC(F)F)c(=O)c4c3)c2C#N)C1 [Compound 24]    0.0277 L/h/kg
N#Cc1c(NS(=O)(=O)N2CC(=CF)C2)ccc(F)c1Oc1ccc2ncn(CC(F)F)c(=O)c2c1 [Compound 11]    0.00978 L/h/kg
CC=C1CN(S(=O)(=O)Nc2ccc(F)c(Oc3ccc4ncn(CC(F)F)c(=O)c4c3)c2C#N)C1 [Compound 7]    0.0103 L/h/kg

Input C=C1CN(S(=O)(=O)Nc2ccc(F)c(Oc3ccc4ncn(CC(F)F)c(=O)c4c3)c2C#N)C1 [Compound 3] , output reported clearance. 0.0112 L/h/kg

---

- testDetails: Pharmacokinetic test in mice
- Assay type: in vivo, ICR mice
- conditionSummary: mouse, po, plasma, i.g. (10 mg/kg)
Labelling: AUC(0-t) reported below 800 µg·h/mL becomes MET; at or above becomes NOT MET.

Previously resolved entries follow.
C=C1CN(S(=O)(=O)Nc2ccc(F)c(Oc3ccc4ncn(CC(F)F)c(=O)c4c3)c2C#N)C1 [Compound 3]    MET
CC=C1CN(S(=O)(=O)Nc2ccc(F)c(Oc3ccc4ncn(CC(F)F)c(=O)c4c3)c2C#N)C1 [Compound 7]    NOT MET
N#Cc1c(NS(=O)(=O)N2CC(=CF)C2)ccc(F)c1Oc1ccc2ncn(CC(F)F)c(=O)c2c1 [Compound 11]    NOT MET
CC=C1CN(S(=O)(=O)Nc2ccc(F)c(Oc3ccc4ncn(CCF)c(=O)c4c3)c2C#N)C1 [Compound 14]    NOT MET

Consider the record given below.
API: query returns whether the molecule falls strictly under 800 µg·h/mL in AUC(0-t). Query: CC(F)=C1CN(S(=O)(=O)Nc2ccc(F)c(Oc3ccc4ncn(CC(F)F)c(=O)c4c3)c2C#N)C1 [Compound 24] MET

---

- testDetails: Pharmacokinetic test in rats
- Type: in vivo, SD rats
- conditionSummary: rat, iv, plasma, i.v. (2.5 mg/kg)
The following molecules are listed with their measured AUC(0-t) values.
Use µg·h/mL as the unit, but write only the number.

CC=C1CN(S(=O)(=O)Nc2ccc(F)c(Oc3ccc4ncn(CC(F)F)c(=O)c4c3)c2C#N)C1    376

Input `C=C1CN(S(=O)(=O)Nc2ccc(F)c(Oc3ccc4ncn(CC(F)F)c(=O)c4c3)c2C#N)C1` , output reported AUC(0-t). 41

---

- testDetails: Pharmacokinetic test in rats
- Type: in vivo, SD rats
- conditionSummary: rat, iv, plasma, i.v. (2.5 mg/kg), read-out: Vdss
assayReadout: Vd (L/kg)
Use L/kg as the unit, but write only the number.

C=C1CN(S(=O)(=O)Nc2ccc(F)c(Oc3ccc4ncn(CC(F)F)c(=O)c4c3)c2C#N)C1    0.126

Input `CC=C1CN(S(=O)(=O)Nc2ccc(F)c(Oc3ccc4ncn(CC(F)F)c(=O)c4c3)c2C#N)C1` , output reported Vd. 0.096

---

- testDetails: Pharmacokinetic test in rats
- Assay type: in vivo, SD rats
- conditionSummary: rat, iv, plasma, i.v. (2.5 mg/kg)
assayReadout: half-life (h)
Use h as the unit, but write only the number.

C=C1CN(S(=O)(=O)Nc2ccc(F)c(Oc3ccc4ncn(CC(F)F)c(=O)c4c3)c2C#N)C1 [Compound 3]    19.1

Input CC=C1CN(S(=O)(=O)Nc2ccc(F)c(Oc3ccc4ncn(CC(F)F)c(=O)c4c3)c2C#N)C1 [Compound 7] , output reported half-life. 14.2

---

- testDetails: Pharmacokinetic test in rats
- Type: in vivo, SD rats
- conditionSummary: rat, iv, plasma, i.v. (2.5 mg/kg)
- Procedure: 5.1 Experimental animals: Male SD rats, about 220 g, 6-8 weeks old, 6 rats/compound, purchased from Chengdu Dossy Experimental Animals Co., Ltd. […] Before and after administration, 0.1 ml of blood was taken from the orbit under isoflurane anaesthesia and placed in an EDTAK2 centrifuge tube. […] Before analysis and detection, all samples were stored at -80°C, and the samples were quantitatively analysed by LC-MS/MS. […]
assayReadout: clearance (mL/h/kg)
Use mL/h/kg as the unit, but write only the number.

Input `C=C1CN(S(=O)(=O)Nc2ccc(F)c(Oc3ccc4ncn(CC(F)F)c(=O)c4c3)c2C#N)C1` , output reported clearance. 5.46

Input `CC=C1CN(S(=O)(=O)Nc2ccc(F)c(Oc3ccc4ncn(CC(F)F)c(=O)c4c3)c2C#N)C1` , output reported clearance. 6.54

---

The following molecules are listed with their measured half-life values.
- testDetails: Pharmacokinetic test in mice
- Assay type: in vivo, ICR mice
- conditionSummary: mouse, iv, plasma, i.v. (2.5 mg/kg)
Use h as the unit, but write only the number.

In the examples that follow, each entry is paired with its recorded half-life.
CC=C1CN(S(=O)(=O)Nc2ccc(F)c(Oc3ccc4ncn(CC(F)F)c(=O)c4c3)c2C#N)C1 [Compound 7]    12.8
CC=C1CN(S(=O)(=O)Nc2ccc(F)c(Oc3ccc4ncn(CCF)c(=O)c4c3)c2C#N)C1 [Compound 14]    9.27
N#Cc1c(NS(=O)(=O)N2CC(=CF)C2)ccc(F)c1Oc1ccc2ncn(CC(F)F)c(=O)c2c1 [Compound 11]    11.1
CC(F)=C1CN(S(=O)(=O)Nc2ccc(F)c(Oc3ccc4ncn(CC(F)F)c(=O)c4c3)c2C#N)C1 [Compound 24]    8.1

Input C=C1CN(S(=O)(=O)Nc2ccc(F)c(Oc3ccc4ncn(CC(F)F)c(=O)c4c3)c2C#N)C1 [Compound 3] , output reported half-life. 8.68

---

- testDetails: Pharmacokinetic test in mice
- Assay type: in vivo, ICR mice
- conditionSummary: mouse, iv, plasma, i.v. (2.5 mg/kg), read-out: Vdss
assayReadout: Vd (L/kg)
Use L/kg as the unit, but write only the number.

In the examples that follow, each entry is paired with its recorded Vd.
N#Cc1c(NS(=O)(=O)N2CC(=CF)C2)ccc(F)c1Oc1ccc2ncn(CC(F)F)c(=O)c2c1    0.123
CC=C1CN(S(=O)(=O)Nc2ccc(F)c(Oc3ccc4ncn(CC(F)F)c(=O)c4c3)c2C#N)C1    0.156
CC=C1CN(S(=O)(=O)Nc2ccc(F)c(Oc3ccc4ncn(CCF)c(=O)c4c3)c2C#N)C1    0.098
CC(F)=C1CN(S(=O)(=O)Nc2ccc(F)c(Oc3ccc4ncn(CC(F)F)c(=O)c4c3)c2C#N)C1    0.237

We now examine a further compound.
Input `C=C1CN(S(=O)(=O)Nc2ccc(F)c(Oc3ccc4ncn(CC(F)F)c(=O)c4c3)c2C#N)C1` , output reported Vd. 0.112
